# EXPERIMENTAL DETAILS: Permeation rate through polyurethane
# Assay type: physicochemical
# MEASUREMENT SETUP: average of triplicate
Where a name gives a salt, the structure may show the parent alone.
# label = Met if Permeation rate through polyurethane < 200 ug/cm 2/hr else Not met

Example entries begin here.
>  <COMPOUND>
NCC(CC(=O)O)c1ccc(Cl)cc1 (centres unmarked) [Bac. methane sulfonate, baclofen methane sulfonate]

>  <DISCRETE LABEL>
Not met

$$$$
>  <COMPOUND>
NCC(CC(=O)O)c1ccc(Cl)cc1 (centres unmarked) [Bac. potassium salt]

>  <DISCRETE LABEL>
Not met

$$$$
>  <COMPOUND>
NCC(CC(=O)O)c1ccc(Cl)cc1 (centres unmarked) [Baclofen (Bac), Baclofen, reference compound]

>  <DISCRETE LABEL>
Met

$$$$

Problem: Permeation rate through polyurethane under 200 ug/cm 2/hr? Item: NCC(CC(=O)O)c1ccc(Cl)cc1 (centres unmarked) [Bac. ethane sulfonate]
Solution: Not met

Problem: Permeation rate through polyurethane under 200 ug/cm 2/hr? Item: NCC(CC(=O)O)c1ccc(Cl)cc1 (centres unmarked) [Bac. maleate]
Solution: Met

Data origin, for the record: patent US5073539A
